Below are Ki values recorded for Prothrombin (Homo sapiens, UniProt P00734).
Numbers only, in nM.

Q) Entry under review: `N=C(N)NS(=O)(=O)C(F)(F)C(F)(F)C(F)(F)C(F)(F)F` . Reported Ki?
A) 520

Q) Entry under review: `N=C(N)NS(=O)(=O)c1ccc(C(=O)O)cc1` . Reported Ki?
A) 104

Q) Entry under review: `COC(=N)NS(=O)(=O)c1ccc2ccccc2c1` . Reported Ki?
A) 147

Can you give me Ki for all of these, one by one?
1. N=C(N)NNS(=O)(=O)c1ccc(Cl)cc1
2. Cc1ccc(S(=O)(=O)NC(=O)N2CCCC2C(=O)Nc2ccc(S(=O)(=O)N=C(N)N)cc2)cc1 (stereo not drawn)
3. N=C(N)NS(=O)(=O)C(F)(F)F
4. N=C(N)NS(=O)(=O)c1ccc(NC(=O)C2CCCN2C(=O)[C@H](Cc2ccccc2)NC(=O)OCc2ccccc2)cc1 (stereo partly drawn)
5. COC(=N)NS(=O)(=O)c1c(Br)c(Br)c(Br)c(Br)c1C(=O)O
6. COc1ccc(S(=O)(=O)NN=C(N)N)cc1
7. COC(=N)NS(=O)(=O)c1cccc2ccccc12
8. N=C(N)NS(=O)(=O)c1ccc(N)cc1

A)
212
48
890
13
239
227
154
95
